Measured inhibition at 10 µM, listed per entry for reference.
Target: human CB2 receptor (Homo sapiens)
Construct: expressed in transfected cells; host or cells: human embryonic kidney (HEK) cells, Semliki Forest Virus system, membrane preparations
Sequence (P34972 whole entry): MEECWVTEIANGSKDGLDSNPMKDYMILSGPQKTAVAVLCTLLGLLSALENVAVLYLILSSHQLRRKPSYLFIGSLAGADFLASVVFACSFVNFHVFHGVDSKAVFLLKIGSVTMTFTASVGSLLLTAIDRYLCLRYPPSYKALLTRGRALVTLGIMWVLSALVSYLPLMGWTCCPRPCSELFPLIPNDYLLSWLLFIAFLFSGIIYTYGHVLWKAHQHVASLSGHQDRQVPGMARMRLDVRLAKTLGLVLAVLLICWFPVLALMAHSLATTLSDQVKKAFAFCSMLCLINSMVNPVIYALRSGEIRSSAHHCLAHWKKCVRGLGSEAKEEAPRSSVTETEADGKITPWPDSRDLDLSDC
Experiment: CB2 receptor affinity ([3H]-CP-55,940 displacement, HEK cell membranes)
Assay type: binding
Conditions: displacement of radioligand [3H]-CP-55,940

compound	inhibition at 10 µM [%]
Cc1cncc(C(=O)Nc2cnc(OCC(F)(F)F)c(-c3ccc(Cl)cc3)c2)c1	8
Cc1cccnc1C(=O)Nc1cnc(OCC(F)(F)F)c(-c2ccc(Cl)cc2)c1	2
O=C(Nc1cnc(OCC2CC2)c(-c2ccc(Cl)cc2)c1)c1ccccc1	15
O=C(Nc1cnc(OCC(F)(F)F)c(-c2ccc(Cl)cc2)c1)c1ccccc1O	-2
O=C(Nc1cnc(OCC(F)(F)F)c(-c2ccc(Cl)cc2)c1)c1ccoc1	9
O=C(Nc1cnc(OCC(F)(F)F)c(-c2ccc(Cl)cc2)c1)[C@H]1CCCO1 (racemic)	15
C[C@H](Oc1ncc(NC(=O)c2cccnc2)nc1-c1ccc(Cl)cc1)C(F)(F)F	-2
Cc1cc(-c2cc(NC(=O)c3cccnn3)cnc2OCC(F)(F)F)ccc1Cl	4
Cc1nc(C)c(C(=O)Nc2cnc(OCC(F)(F)F)c(-c3ccc(Cl)cc3)c2)o1	1
O=C(Nc1cnc(OCC(F)(F)F)c(-c2ccc(Cl)cc2F)c1)c1cncnc1	4
Cc1ccc(-c2cc(NC(=O)c3cccnc3)cnc2OCC(F)(F)F)cc1C	15
O=C(Nc1cnc(OC2CCC2)c(-c2ccc(Cl)cc2)c1)c1cnccn1	26
O=C(Nc1cnc(OCC(F)(F)F)c(-c2cccc(Cl)c2)c1)c1cccnc1	5
O=C(Nc1cnc(OCC(F)(F)F)c(-c2ccc(Cl)c(F)c2)c1)c1cccnn1	-1
Cc1cnc(C(=O)Nc2cnc(OCC(F)(F)F)c(-c3ccc(Cl)cc3)c2)s1	11
Cc1cc(C(=O)Nc2cnc(OCC(F)(F)F)c(-c3ccc(Cl)cc3)c2)n[nH]1	-8
O=C(Nc1cnc(OCC(F)(F)F)c(-c2ccc(Cl)cc2)c1)c1cc[nH]n1	-1
